EXPERIMENTAL SYSTEM: recombinant human nicotinic acid receptor (NAR) (Homo sapiens, UniProt Q8TDS4)
Sequence (Q8TDS4 whole entry): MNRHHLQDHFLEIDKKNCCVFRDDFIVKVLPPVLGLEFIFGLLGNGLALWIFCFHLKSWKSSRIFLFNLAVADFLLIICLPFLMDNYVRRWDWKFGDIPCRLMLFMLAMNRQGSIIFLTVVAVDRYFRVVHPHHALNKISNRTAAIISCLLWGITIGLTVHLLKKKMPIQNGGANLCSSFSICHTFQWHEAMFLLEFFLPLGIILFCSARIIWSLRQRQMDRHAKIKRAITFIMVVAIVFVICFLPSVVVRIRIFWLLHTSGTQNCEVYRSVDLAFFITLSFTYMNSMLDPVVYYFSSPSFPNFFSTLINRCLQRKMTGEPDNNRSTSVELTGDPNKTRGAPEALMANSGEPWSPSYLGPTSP
MEASUREMENT DESCRIPTION: Nicotinic Acid Receptor Assay: inhibition of forskolin-stimulated cAMP accumulation in CHO cells (MesoScale Discovery cAMP kit)
Format: cell-based
MEASUREMENT CONTEXT: CHO cells expressing recombinant human NAR; forskolin-stimulated cAMP; read-out: NA EC50 camp
PARAMETER: EC50

Look over these answered cases.
[[record]]
molecule = "CCc1cc(=O)oc2nc(OCc3ccccc3-n3ccnc3C)[nH]c(=O)c12 [Compound 583]"
parameter = "EC50"
result = "100 to 1000 nM"

[[record]]
molecule = "CCOCCCc1cc(=O)oc2[nH]c(=O)[nH]c(=O)c12 [Compound 239]"
parameter = "EC50"
result = "0.001 to 100 nM"


Consider the molecule O=C(NCCCc1cc(=O)oc2[nH]c(=O)[nH]c(=O)c12)OCc1ccccc1 [Compound 228] . State its measured EC50.
> 1000 nM

Please report the measured EC50 for CCc1cc(=O)oc2nc(OCc3ccc(C(F)(F)F)cc3C(F)(F)F)[nH]c(=O)c12 [Compound 514]
> 1000 nM

----------
EXPERIMENTAL SYSTEM: recombinant human nicotinic acid receptor (NAR) (Homo sapiens)
MEASUREMENT DESCRIPTION: Nicotinic Acid Receptor Assay: inhibition of forskolin-stimulated cAMP accumulation in CHO cells (MesoScale Discovery cAMP kit)
Type: cell-based
MEASUREMENT CONTEXT: NA EC50 camp, inhibition of forskolin-stimulated cAMP accumulation, CHO cells expressing recombinant human NAR
Listed next: entries and their corresponding pEC50.
A value of pEC50 is the negative decimal logarithm of a concentration given in moles per litre.

These solved cases illustrate the format of a correct answer.
[[record]]
given_smiles = "O=c1cc(CCC2CCC2)c2c(=O)[nH]c(C(F)F)nc2o1"
result_number = 6.54

[[record]]
given_smiles = "O=c1cc(CCC2CC2)c2c(=O)[nH]c(C(F)F)nc2o1"
result_number = 6.61

[[record]]
given_smiles = "CC1(CCCc2cc(=O)oc3nc(C(F)F)[nH]c(=O)c23)CC1"
result_number = 7.66

[[record]]
given_smiles = "CCCCc1cc(=O)oc2nc(C(F)F)[nH]c(=O)c12"
result_number = 5.72

[[record]]
given_smiles = "CCCCCc1cc(=O)oc2nc(C(F)F)[nH]c(=O)c12"
result_number = 6.67


Given O=c1cc(CCCC2CC2)c2c(=O)[nH]c(C(F)F)nc2o1 , respond with its pEC50.
6.89

Consider the compound CCCCc1cc(=O)oc2nc(OCC#CC3CC3)[nH]c(=O)c12 . State its measured pEC50.
7.03

----------
EXPERIMENTAL SYSTEM: recombinant human nicotinic acid receptor (NAR) (Homo sapiens)
MEASUREMENT DESCRIPTION: Nicotinic Acid Receptor Assay: inhibition of forskolin-stimulated cAMP accumulation in CHO cells (MesoScale Discovery cAMP kit)
Assay type: cell-based
MEASUREMENT CONTEXT: CHO cells expressing recombinant human NAR; forskolin-stimulated cAMP; read-out: NA EC50 camp
Procedure: The nicotinic acid receptor agonist activity of the inventive compounds was determined by following the inhibition of forskolin-stimulated cAMP accumulation in cells using the MesoScale Discovery cAMP detection kit following the manufacture's protocol. […] Prior to reading, 10 μL of read buffer was added to each well, and the plate was read in a Sector 6000 plate imager. […]
Below, each entry is listed alongside its reported EC50.

Below: 4 compounds and their reported EC50.
[[record]]
compound = "COC(C)(C)CCc1cc(=O)oc2[nH]c(=O)[nH]c(=O)c12"
experimental_system = "recombinant human nicotinic acid receptor (NAR) (Homo sapiens)"
result = "> 1000 nM"

[[record]]
compound = "CCc1cc(=O)oc2nc(OCc3ccccc3-c3cccc(C(=O)N(C)C)c3)[nH]c(=O)c12"
experimental_system = "recombinant human nicotinic acid receptor (NAR) (Homo sapiens)"
result = "100 to 1000 nM"

[[record]]
compound = "CCc1cc(=O)oc2nc(OCC3CCCO3)[nH]c(=O)c12 (stereo not drawn)"
experimental_system = "recombinant human nicotinic acid receptor (NAR) (Homo sapiens)"
result = "> 1000 nM"

[[record]]
compound = "CC1CC(c2cc(=O)oc3[nH]c(=O)[nH]c(=O)c23)C1 (stereo not drawn)"
experimental_system = "recombinant human nicotinic acid receptor (NAR) (Homo sapiens)"
result = "100 to 1000 nM"


Give EC50 for the following compound: O=c1cc(CCC2CCCC2)c2c(=O)[nH]c(=O)n(C3CCC3)c2o1
> 1000 nM

Using the record for CCc1cc(=O)oc2nc(OCc3ccccc3C#N)[nH]c(=O)c12 , state its measured EC50.
> 1000 nM

Supply recorded EC50 for CCc1cc(=O)oc2nc(OCCc3cccc4ccccc34)[nH]c(=O)c12 here.
> 1000 nM

Specify EC50 for CCc1cc(=O)oc2nc(OCc3ccc(C(F)(F)F)cn3)[nH]c(=O)c12 and stop.
100 to 1000 nM

Indicate the recorded EC50 value for this compound: CCc1cc(=O)oc2nc(OCCN3CCOC3=O)[nH]c(=O)c12
> 1000 nM

Answer with the recorded EC50 of CCc1cc(=O)oc2nc(OC(C)COC)[nH]c(=O)c12 (stereo not drawn) only.
100 to 1000 nM

Entry O=c1[nH]c(=O)c2c(CC3CCC(F)(F)CC3)cc(=O)oc2[nH]1 needs its EC50 filled in; supply it.
0.001 to 100 nM

Indicate the recorded EC50 value for this compound: CCc1cc(=O)oc2nc(OCc3cc4cc(C)ccc4s3)[nH]c(=O)c12
0.001 to 100 nM

Note down EC50 recorded for CCc1cc(=O)oc2nc(OCCOC3CCCCC3)[nH]c(=O)c12
> 1000 nM

Provide EC50 value for the following compound: O=c1[nH]c(=O)c2c(CCC(C3CC3)C3CC3)cc(=O)oc2[nH]1
100 to 1000 nM

Quickly give me recorded EC50 for CCc1cc(=O)oc2nc(OCc3nccc4ccccc34)[nH]c(=O)c12
100 to 1000 nM

Provide EC50 value for the following compound: CCc1cc(=O)oc2nc(OCc3cccc(-c4ccc(OC)c(OC)c4)c3)[nH]c(=O)c12
100 to 1000 nM

For CCc1cc(=O)oc2nc(OCc3ccccc3-n3ccnc3)[nH]c(=O)c12 , write its EC50.
100 to 1000 nM

// Input: CCc1cc(=O)oc2nc(OCc3ccc(Br)cn3)[nH]c(=O)c12 . Output its EC50 only.
100 to 1000 nM

----------
Reported pEC50 values for the following compounds.
EXPERIMENTAL SYSTEM: recombinant human nicotinic acid receptor (NAR) (Homo sapiens, UniProt Q8TDS4)
MEASUREMENT DESCRIPTION: Nicotinic Acid Receptor Assay: inhibition of forskolin-stimulated cAMP accumulation in CHO cells (MesoScale Discovery cAMP kit)
Assay type: cell-based
MEASUREMENT CONTEXT: CHO cells expressing recombinant human NAR; forskolin-stimulated cAMP; read-out: NA EC50 camp
Procedure: The nicotinic acid receptor agonist activity of the inventive compounds was determined by following the inhibition of forskolin-stimulated cAMP accumulation in cells using the MesoScale Discovery cAMP detection kit following the manufacture's protocol. […] Prior to reading, 10 μL of read buffer was added to each well, and the plate was read in a Sector 6000 plate imager. […]
pEC50: −log10 of the molar value.

Worked cases, answers included:
[[record]]
given_smiles = "CC(C)CCc1cc(=O)oc2c1c(=O)[nH]c(=O)n2CC1CC1"
result = "< 6.00"

[[record]]
given_smiles = "CCCCCCc1cc(=O)oc2nc(ONC(=O)OCC)[nH]c(=O)c12"
result = "7.00 to 12.00"

[[record]]
given_smiles = "CCc1cc(=O)oc2nc(OCc3c(C)noc3-c3ccccc3)[nH]c(=O)c12"
result = "6.00 to 7.00"

[[record]]
given_smiles = "O=c1[nH]c(=O)c2c(CC3CC3)cc(=O)oc2[nH]1"
result = "6.00 to 7.00"

[[record]]
given_smiles = "CCc1cc(=O)oc2nc(OCCO)[nH]c(=O)c12"
result = "6.00 to 7.00"


Output measured pEC50 for this item: CCc1cc(=O)oc2nc(OCc3ccccc3-c3cccc(C)c3)[nH]c(=O)c12
< 6.00

Return pEC50 (reported value) for this compound: CCc1cc(=O)oc2nc(OCc3ccccc3-c3cccc(C(=O)NC)c3)[nH]c(=O)c12
6.00 to 7.00

For the compound CC(C)(C#N)CCCc1cc(=O)oc2[nH]c(=O)[nH]c(=O)c12 , report pEC50.
< 6.00

Report pEC50 for CC/C=C\CCc1cc(=O)oc2c1c(=O)[nH]c(=O)n2CC1CC1
< 6.00
